# Protocol text: Hepatocyte stability assay, mouse hepatocytes
# Assay type: in vitro ADME
# Test conditions: male, CD-1, mouse, cryopreserved hepatocytes, pH 7.3, 0.7 million cells per mL; 1 uM compound
Below: a set of entries, each annotated with reported hepatocyte CLint at 1 uM.

>  <Compound>
Cn1cnc(N[C@H]2CC[C@@H](Oc3nc(N4CCOCC4)cc4ncccc34)CC2)n1 [Compound 31]

>  <hepatocyte CLint at 1 uM>
< 8.2 µL/min/1e6 cells

$$$$
>  <Compound>
Cc1ccnc(N[C@H]2CC[C@@H](Oc3nc(N4CCOCC4)cc4ncccc34)CC2)n1 [Compound 48]

>  <hepatocyte CLint at 1 uM>
> 8.2 µL/min/1e6 cells

$$$$
>  <Compound>
CN(c1cnc2cc(N3CCOCC3)nc(O[C@H]3CC[C@@H](Nc4ncccn4)CC3)c2c1)S(C)(=O)=O [Compound 197]

>  <hepatocyte CLint at 1 uM>
> 8.2 µL/min/1e6 cells

$$$$
>  <Compound>
O=C(N[C@H]1CC[C@@H](Oc2nc(N3CCOCC3)cc3ncccc23)CC1)c1ncco1 [Compound 142]

>  <hepatocyte CLint at 1 uM>
> 8.2 µL/min/1e6 cells

$$$$
>  <Compound>
CN(C)C(=O)c1cnc(N[C@H]2CC[C@@H](Oc3nc(N4CCOCC4)cc4ncccc34)CC2)nc1 [Compound 53]

>  <hepatocyte CLint at 1 uM>
< 8.2 µL/min/1e6 cells

$$$$
>  <Compound>
FC(F)c1ccc2c(O[C@H]3CC[C@@H](Nc4ncccn4)CC3)nc(N3CCOCC3)cc2n1 [Compound 21]

>  <hepatocyte CLint at 1 uM>
< 8.2 µL/min/1e6 cells

$$$$
>  <Compound>
O=C(N[C@H]1CC[C@@H](Oc2nc(N3CCOCC3)cc3ncccc23)CC1)c1ncccn1 [Compound 123]

>  <hepatocyte CLint at 1 uM>
< 8.2 µL/min/1e6 cells

$$$$
>  <Compound>
O=C(N[C@H]1CC[C@@H](Oc2nc(N3CCOCC3)cc3ncccc23)CC1)c1ccncc1 [Compound 113]

>  <hepatocyte CLint at 1 uM>
< 8.2 µL/min/1e6 cells

$$$$
>  <Compound>
CS(=O)(=O)Nc1cnc2cc(N3CCOCC3)nc(O[C@H]3CC[C@@H](n4ccnc4)CC3)c2c1 [Compound 161]

>  <hepatocyte CLint at 1 uM>
< 8.2 µL/min/1e6 cells

$$$$
>  <Compound>
Cc1nc(N[C@H]2CC[C@@H](Oc3nc(N4CCOCC4)cc4ncccc34)CC2)c2occc2n1 [Compound 81]

>  <hepatocyte CLint at 1 uM>
> 8.2 µL/min/1e6 cells

$$$$
>  <Compound>
COc1ccnc(N[C@H]2CC[C@@H](Oc3nc(N4CCOCC4)cc4ncccc34)CC2)n1 [Compound 49]

>  <hepatocyte CLint at 1 uM>
> 8.2 µL/min/1e6 cells

$$$$
>  <Compound>
c1cnc2cc(N3CCOCC3)nc(O[C@H]3CC[C@@H](Nc4ncc5[nH]ccc5n4)CC3)c2c1 [Compound 85]

>  <hepatocyte CLint at 1 uM>
> 8.2 µL/min/1e6 cells

$$$$
>  <Compound>
Cn1cnc2cnc(N[C@H]3CC[C@@H](Oc4nc(N5CCOCC5)cc5ncccc45)CC3)nc21 [Compound 88]

>  <hepatocyte CLint at 1 uM>
> 8.2 µL/min/1e6 cells

$$$$
>  <Compound>
Nc1cnc(N[C@H]2CC[C@@H](Oc3nc(N4CCOCC4)cc4ncccc34)CC2)nc1 [Compound 43]

>  <hepatocyte CLint at 1 uM>
> 8.2 µL/min/1e6 cells

$$$$
>  <Compound>
Cn1ccc2nc(N[C@H]3CC[C@@H](Oc4nc(N5CCOCC5)cc5ncccc45)CC3)ncc21 [Compound 87]

>  <hepatocyte CLint at 1 uM>
> 8.2 µL/min/1e6 cells

$$$$
>  <Compound>
CS(=O)(=O)Nc1cnc(N[C@H]2CC[C@@H](Oc3nc(N4CCOCC4)cc4ncccc34)CC2)nc1 [Compound 44]

>  <hepatocyte CLint at 1 uM>
< 8.2 µL/min/1e6 cells

$$$$
>  <Compound>
c1cnc2cc(N3CCOCC3)nc(O[C@H]3CC[C@@H](Nc4ccn5nccc5n4)CC3)c2c1 [Compound 89]

>  <hepatocyte CLint at 1 uM>
> 8.2 µL/min/1e6 cells

$$$$
>  <Compound>
CS(=O)(=O)Nc1cnc2cc(N3CCOCC3)nc(O[C@H]3CC[C@@H](Nc4ncccn4)CC3)c2c1 [Compound 185]

>  <hepatocyte CLint at 1 uM>
< 8.2 µL/min/1e6 cells

$$$$
>  <Compound>
O=C(N[C@H]1CC[C@@H](Oc2nc(N3CCOCC3)cc3ncccc23)CC1)c1ccnnc1 [Compound 121]

>  <hepatocyte CLint at 1 uM>
< 8.2 µL/min/1e6 cells

$$$$
>  <Compound>
Oc1cnc(N[C@H]2CC[C@@H](Oc3nc(N4CCOCC4)cc4ncccc34)CC2)nc1 [Compound 45]

>  <hepatocyte CLint at 1 uM>
> 8.2 µL/min/1e6 cells

$$$$
>  <Compound>
c1cnc2cc(N3CCOCC3)nc(O[C@H]3CC[C@@H](Nc4ncc5sccc5n4)CC3)c2c1 [Compound 84]

>  <hepatocyte CLint at 1 uM>
> 8.2 µL/min/1e6 cells

$$$$
>  <Compound>
CS(=O)(=O)Nc1cnc2cc(N3CCOCC3)nc(O[C@H]3CC[C@@H](NC(=O)c4ncco4)CC3)c2c1 [Compound 205]

>  <hepatocyte CLint at 1 uM>
< 8.2 µL/min/1e6 cells

$$$$
>  <Compound>
c1cnc2cc(N3CCOCC3)nc(O[C@H]3CC[C@@H](Nc4cncnc4)CC3)c2c1 [Compound 28]

>  <hepatocyte CLint at 1 uM>
> 8.2 µL/min/1e6 cells

$$$$
